- System: RPMI-8226 leukemia
- method_description: NCI tumour cell line growth inhibition, 48 h
readout_name: GI50

Observe how each entry below is paired with its result.
compound: Cc1nn(-c2nc3ccccc3s2)c(C)c1Oc1ccccc1O
GI50: 8.13 µM
//
compound: CCOc1cccc(/C=N/NC(=O)c2ccc(Nc3ccnc(C(F)(F)F)c3)cc2)c1O
GI50: 0.359 µM
//
compound: O=[N+]([O-])c1ccc(Br)c([N+](=O)[O-])c1
GI50: 2.36 µM

// query Respond only with GI50 recorded for `COc1cc2c3c(n(CCCCOC(=O)C(F)(F)F)c(=O)c2cc1OC)-c1cc2c(cc1C3=O)OCO2`
// result > 20.4 µM

// query Give a short answer stating reported GI50 for CC1=C(C(=O)Nc2ccc(F)c(Cl)c2)C(c2ccccc2Cl)NC(=S)N1 (stereo not given) .
// result 38.3 µM

====

- System: CCRF-CEM leukemia
- method_description: NCI tumour cell line growth inhibition, 48 h
# reported TGI; entries follow

Some solved cases for reference:
molecule: C=CCc1cc(-c2cc(CC=C)c(O)c(CN(CCCl)CCCl)c2)cc(CN(CCCl)CCCl)c1O
measured_target: CCRF-CEM leukemia
TGI: > 100 µM

molecule: COc1cc(C(=O)c2ccc3c(c2)OCO3)cc(OC)c1OC
measured_target: CCRF-CEM leukemia
TGI: > 75.3 µM

molecule: CC1=NN(C(=O)CC(=O)Nc2ccccc2C)C(=O)C1N=Nc1ccc(C(=O)O)cc1 (stereo not given)
measured_target: CCRF-CEM leukemia
TGI: > 100 µM

molecule: CC(C)=CCC[C@@H](C)C1=C(O)C(Nc2ccccc2Br)=C(C)C(=O)C1=O
measured_target: CCRF-CEM leukemia
TGI: 12.7 µM

molecule: CCc1n[nH]c(=S)n1/N=C\c1ccc(-c2ccccc2Cl)o1
measured_target: CCRF-CEM leukemia
TGI: > 100 µM

// query Find the measured TGI of `O=S1(=O)OCCOS(=O)(=O)C1I` and report it.
// result > 100 µM

// query Please list TGI recorded for the molecule `CCOc1c(Br)cc(C2C(C(=O)OC)=CN(C)C=C2C(=O)OC)cc1OC`
// result > 100 µM

// query Read off the recorded TGI for `Cc1nn(-c2nc3ccccc3s2)c(C)c1Oc1ccccc1O`
// result 47.8 µM

// query Tell me measured TGI for CC1=NN(c2cccc(Cl)c2)C2(SCC(=O)N2c2nc3ccccc3s2)/C1=C\c1ccc(Cl)cc1 (stereo not given) please.
// result 3.31 µM

// query Look up TGI of COc1cc(C2=NN(C)C(c3ccc([N+](=O)[O-])o3)C2)cc(OC)c1OC (stereo not given) and report it.
// result 72 µM

====

- Test system: MDA-MB-435
- method_description: NCI tumour cell line growth inhibition, 48 h
// reported TGI for each item listed

Below, 10 molecules whose answers are already recorded.
molecule: C[n+]1c(/C=C\c2ccc(Cl)cc2)ccc2ccccc21
readout_name: TGI
result: 66.4 µM
//
molecule: COc1cc2nc3sc(C(=O)Nc4ccc(C(=O)OC(C)C)cc4)c(C(=O)Nc4ccc(Cl)cc4C)n3c(=O)c2cc1OC
readout_name: TGI
result: > 100 µM
//
molecule: CCOC(=O)c1cc2c(ccc3cc(C(=O)OCC)[nH]c32)[nH]1
readout_name: TGI
result: > 100 µM
//
molecule: CC(=O)Oc1ccc2c(c1)Oc1cc(C(C)=O)ccc1C21OC(=O)c2ccccc21 (stereo not drawn)
readout_name: TGI
result: > 100 µM
//
molecule: CC1(c2ccc(F)cc2)CC(c2ccc(F)cc2)=C(C#N)C(=C(C#N)C#N)N1 (stereo not drawn)
readout_name: TGI
result: 32 µM
//
molecule: OC(c1nc2ccccc2s1)(C(F)(F)F)C(F)(F)F
readout_name: TGI
result: > 100 µM
//
molecule: CCCN(CCC)C(=O)C1=Cc2ccc(-c3ccc(C(=O)N4CCCC4)cc3)cc2N=C(N)C1
readout_name: TGI
result: 7.58 µM
//
molecule: C=C1C(=O)O[C@@H]2C[C@@]3(C)CCC[C@H](C)C3=C[C@H]12
readout_name: TGI
result: 17.2 µM
//
molecule: COc1ccccc1C1SCC(=O)N1c1ccc(-n2c(-c3ccccc3)nc3ccccc3c2=O)cc1 (stereo not drawn)
readout_name: TGI
result: > 100 µM
//
molecule: c1ccc(Cn2cc3c(c2-c2ccccc2)CCc2cnoc2-3)cc1
readout_name: TGI
result: 7.18 µM

// query Give the observed TGI of COc1cccc(C2c3cc4c(cc3OC(C)(O)C2C)OCO4)c1O (stereo not drawn) for MDA-MB-435.
// result > 100 µM

// query Under MDA-MB-435: report TGI of `COCc1nc2c(OC)cc(-c3nc4nc(N5CCN(C)CC5)ccc4[nH]3)c(OC)c2[nH]1` .
// result > 100 µM

// query Param request: TGI | system MDA-MB-435 | item CC[C@@H](C(=O)[C@@H](C)[C@@H](O)[C@H](C)[C@@H]1O[C@@H]([C@@H](CC)C(=O)O)CC[C@@H]1C)C1O[C@]2(C=CC(=O)[C@]3(CC[C@@](C)([C@H]4CC[C@](O)(CC)[C@H](C)O4)O3)O2)[C@H](C)C[C@@H]1C (stereo partly drawn)
// result 2.8 µM

// query Output reported TGI of the molecule `CSC1=C(C(=O)Nc2ccc(Cl)cc2)C(N)=NC1=O` on MDA-MB-435.
// result > 100 µM

// query Give measured TGI for `COc1cc(NS(C)(=O)=O)ccc1Nc1c2ccc(Cl)cc2nc2c(OC)cccc12` (MDA-MB-435).
// result 16 µM

// query Specify TGI for C[C@H]1O[C@@H](c2c(O)ccc3ccccc23)C[C@@H](N(C)C)C1O (stereo partly drawn) , system MDA-MB-435.
// result > 100 µM

// query Give the observed TGI of O=C1/C(=C/C=C/c2ccccc2)N=C(c2ccccc2)N1C1Nc2cc3c(cc2S1)NC(N1C(=O)/C(=C/C=C/c2ccccc2)N=C1c1ccccc1)S3 (stereo not drawn) for MDA-MB-435.
// result > 100 µM

// query Output reported TGI of the molecule CCOc1ccc(N=NC2C(=O)N(C(=O)CC(=O)Nc3ccccc3OC)N=C2C)cc1 (stereo not drawn) on MDA-MB-435.
// result 4.12 µM

// query State TGI on MDA-MB-435. Entry: CCCCON1C[C@@H](O)C(O)[C@@H](O)C1 (stereo partly drawn)
// result > 100 µM

// query # return TGI of `CCOc1c(Br)cc(C2C(C(=O)OC)=CN(C)C=C2C(=O)OC)cc1OC` (system: MDA-MB-435)
// result > 100 µM

// query Lab note: record TGI of `Cc1ccc2c(c1)C(=O)/C(=C\c1ccccc1)CCS2(=O)=O` tested on MDA-MB-435.
// result > 61.4 µM

// query Report TGI from MDA-MB-435 testing of `CC1=CC(=NC(=O)CBr)C=C/C1=N\S(=O)(=O)c1ccccc1`
// result 13.7 µM

// query Name the value of TGI reported for `COc1cc2nc(-c3cnc(N(C)C)nc3)nc(NC3CCN(Cc4ccccc4)CC3)c2cc1OC` when tested on MDA-MB-435.
// result 2.81 µM

====

- Tested on: M14 melanoma
- method_description: NCI tumour cell line growth inhibition, 48 h
# TGI per entry

compound: COc1ccc(C[C@@H]2Cc3cc(OC)c(OC)cc3CN2C)cc1
TGI: > 100 µM

// query Read off the recorded TGI for CCOC12OC3=C(CC1CC1=C(CCC1=O)O2)C(=O)CC3 (stereo unspecified)
// result > 100 µM

// query Give the reported TGI for this compound. `COc1cc(/C=C2\[C@H]3c4c(c(OC)c(C)c(OC)c4OC)C[C@@H](C(=O)N2Cc2ccccc2)N3C(=O)OCC(C)C)c(OC)c(C)c1OC`
// result > 100 µM

// query Give the value of TGI reported for the following: `CN(NC(=O)c1ccco1)C1=NCCN1`
// result > 100 µM

// query State, in one line, measured TGI of `CSC1=C(C(=O)Nc2ccc(Cl)cc2)C(N)=NC1=O`
// result > 100 µM

// query Indicate its recorded TGI; the compound in question is CC(C)(C)NC(C1=CC(C)(C)c2ccccc2C1=O)c1ccccc1 (stereo unspecified)
// result 2.85 µM

// query # return recorded TGI for entry Cc1ccccc1C1CC(=O)CC(c2ccccc2C)C12C(=O)NC(=O)NC2=O (stereo unspecified)
// result > 100 µM

// query Supply TGI value. Item: `COc1ccccc1OCC(=O)Nc1sc2c(c1C(N)=O)CCC2`
// result > 100 µM

// query Check the records and state TGI for C=CC(Cl)(CBr)CCC(Br)=C(C)C (stereo unspecified)
// result > 100 µM

// query Return reported TGI. Input compound: COc1cccc(C2c3cc4c(cc3OC(C)(O)C2C)OCO4)c1O (stereo unspecified)
// result 24.2 µM

// query Answer with the recorded TGI of COc1ccc(C(=O)OCC2OC(n3cnc4c(=S)nc[nH]c43)C(OC(=O)c3ccc(OC)cc3)C2OC(=O)c2ccc(OC)cc2)cc1 (stereo unspecified) only.
// result > 100 µM

Ref: PubChem BioAssay (NCI)
